- Tested on: HS 578T breast
- protocol: NCI tumour cell line growth inhibition, 48 h
Would you mind telling me the reported TGI of each entry?

input: What does the data say about its TGI? Entry: `CC1=C(C)C(=O)C(C(C)C2=C(C)C(=O)C(C)=C(C)C2=O)=C(C)C1=O`
output: > 100 µM

input: What does the data say about its TGI? Entry: `CC(C)=NN/C(=N\S(=O)(=O)c1cc(Cl)c(Oc2ccc([N+](=O)[O-])cc2Cl)c(Cl)c1)Nc1ccc(Cl)cc1`
output: > 100 µM

input: What does the data say about its TGI? Entry: `NCCOc1ccccn1`
output: > 100 µM

input: What does the data say about its TGI? Entry: Nc1nc(Cl)cc(NCC2(CO)CC(CCCCc3ccccc3)C2)n1 (stereo not given)
output: > 100 µM

input: What does the data say about its TGI? Entry: `O=c1[nH]c2ccc(CC(=S)N3CCN(c4ccccc4)CC3)cc2s1`
output: > 100 µM

====

- Test system: EKVX NSCLC
- protocol: NCI tumour cell line growth inhibition, 48 h
readout_label: TGI

input: What does the data say about its TGI? Entry: `c1ccc(COc2nc3ccc(C45CC6CC(CC(C6)C4)C5)cc3[nH]2)cc1`
output: > 100 µM

input: What does the data say about its TGI? Entry: `COc1ccc(-n2c(N)c(C(=O)NCCN3CCOCC3)c3nc4ccccc4nc32)cc1OC`
output: > 100 µM

input: What does the data say about its TGI? Entry: `O=C(O)CCCN1CCCCC1`
output: > 100 µM

input: What does the data say about its TGI? Entry: CCCCCOP(=O)(OCCCCC)C(NC(C)=O)(C(=O)OCC)C(F)(F)F (stereo not given)
output: > 100 µM

input: What does the data say about its TGI? Entry: CC(=O)c1ccc2c(c1)CC1(C2)Cc2cc3c(cc2C1)C(=O)CC3 (stereo not given)
output: > 89.6 µM

====

- Test system: ACHN renal
- protocol: NCI tumour cell line growth inhibition, 48 h
Where a SMILES comes first, the peptide text is derived from it. The star is where a group is joined. Boc = CC(C)(C)OC(=O)*; OBn = c1ccc(CO*)cc1; Bn = c1ccc(C*)cc1
readout_label: TGI (µM)
Enter your answer as a number in µM; do not include the unit.

input: What does the data say about its TGI? Entry: CC1(C)OC1CC/C(=C/CBr)CBr (stereo not given)
output: 30.9

input: What does the data say about its TGI? Entry: CC(C)CC(NC(=O)C(Cc1ccccc1)NC(=O)C(COCc1ccccc1)NC(=O)OC(C)(C)C)C(=O)OCc1ccccc1 (stereo not drawn) (Boc-Ser(Bn)-Phe-Leu-OBn; configuration not given here)
output: 33.1

input: What does the data say about its TGI? Entry: `Cc1ccc(Cl)cc1Nc1nc(C(F)(F)F)ccc1C(=O)Oc1ccc(Cl)cc1`
output: 18

input: What does the data say about its TGI? Entry: `Cc1nc2cc(O)c(O)cc2cc1Oc1ccc(NC(=O)Nc2ccc(Cl)c(Cl)c2)cc1`
output: 17.9

input: What does the data say about its TGI? Entry: `O=C1c2cccnc2-c2nc(-c3ccc([N+](=O)[O-])cc3)cc3c2c1nc1ccccc13`
output: 30

input: What does the data say about its TGI? Entry: CC(C)(C)c1cc(C(O)(C(F)(F)F)C(F)(F)F)c2c(c1)C(C(F)(F)F)(C(F)(F)F)OC(c1ccccc1)(C(C)(C)C)N2 (stereo not given)
output: 14

input: What does the data say about its TGI? Entry: CC(=O)c1ccc2c(c1)CC1(C2)Cc2cc3c(cc2C1)C(=O)CC3 (stereo not given)
output: 35.2

input: What does the data say about its TGI? Entry: `CCN1C(=O)N(c2c(F)c(OC)cc(OC)c2F)Cc2cnc3[nH]c(CN4CCOCC4)cc3c21`
output: 14.1

====

- System: SN12C renal
- protocol: NCI tumour cell line growth inhibition, 48 h
readout_label: TGI

input: What does the data say about its TGI? Entry: `O=C1NC(=NCc2ccccn2)S/C1=C\c1ccc2ncccc2c1`
output: > 25 µM

input: What does the data say about its TGI? Entry: `c1ccc(/C(=N/Nc2cnccn2)c2ncccn2)cc1`
output: > 100 µM

input: What does the data say about its TGI? Entry: `Cc1cn2c(/C=C3/C(=O)Nc4ccccc43)c(-c3ccccc3)nc2s1`
output: > 100 µM

input: What does the data say about its TGI? Entry: COc1ccc(OC)c2c1C[C@@H]1C(C#N)N3[C@H](Cc4c(OC)ccc(OC)c4[C@@H]3C)C(=O)N1[C@H]2C (some centres undefined)
output: > 50.2 µM

input: What does the data say about its TGI? Entry: `Cc1cc(Cl)ccc1N1C(=O)C(=O)C(c2nc3ccccc3s2)C(=O)C1=O`
output: > 100 µM

input: What does the data say about its TGI? Entry: COc1ccc(NS(=O)C2CCCCC2)cc1 (centres undefined)
output: > 100 µM

input: What does the data say about its TGI? Entry: `CCCCN(CCCC)CC(=O)c1ccc2cc(Cl)c3ccccc3c2c1`
output: > 100 µM

input: What does the data say about its TGI? Entry: `Cn1c2ccccc2n2c(=O)c(-c3ccc(O)cc3)nnc12`
output: > 100 µM

input: What does the data say about its TGI? Entry: Cc1ccc(S(=O)(=O)OC2CN3CCC2CC3)cc1 (centres undefined)
output: > 100 µM

input: What does the data say about its TGI? Entry: Nc1nc(Cl)cc(NCC2(CO)CC(CCCCc3ccccc3)C2)n1 (centres undefined)
output: > 100 µM

input: What does the data say about its TGI? Entry: `Oc1ccc2ccccc2c1/C=N\Nc1ccccn1`
output: > 100 µM

input: What does the data say about its TGI? Entry: `CC(=O)c1nc2ccccc2n1CC(=O)c1ccc([N+](=O)[O-])cc1`
output: > 100 µM

input: What does the data say about its TGI? Entry: CC(C)(C)NCC(O)COc1cccc2[nH]c(C#N)cc12 (centres undefined)
output: > 100 µM

input: What does the data say about its TGI? Entry: `O=C1NC(=NCCc2ccccc2Cl)S/C1=C\c1ccc2ncccc2c1`
output: > 25 µM

====

- System: NCI-H460 lung
- protocol: NCI tumour cell line growth inhibition, 48 h
Would you mind telling me the reported TGI of each entry?

input: What does the data say about its TGI? Entry: `Cn1c(=O)c(Cc2ccc(F)cc2F)cc2cnc(NC3CCOCC3)nc21`
output: > 25 µM

input: What does the data say about its TGI? Entry: `CC(=O)c1nc2ccccc2n1CC(=O)c1ccc([N+](=O)[O-])cc1`
output: 68.6 µM

input: What does the data say about its TGI? Entry: `COc1ccccc1NC(=O)C1=C(C)NC(C)=C(C(=O)Nc2ccccc2OC)C1c1ccc(C(C)C)cc1`
output: > 100 µM

input: What does the data say about its TGI? Entry: Cc1ccc(S(=O)(=O)OC2CN3CCC2CC3)cc1 (stereo unspecified)
output: > 100 µM

input: What does the data say about its TGI? Entry: `CC(C)=NN/C(=N\S(=O)(=O)c1cc(Cl)c(Oc2ccc([N+](=O)[O-])cc2Cl)c(Cl)c1)Nc1ccc(Cl)cc1`
output: > 100 µM

input: What does the data say about its TGI? Entry: `CCOC(=O)Cc1csc(/N=C\c2c(O)c3ccccc3oc2=O)n1`
output: > 100 µM

input: What does the data say about its TGI? Entry: `CSC(=S)N/N=C(\C)c1ccccn1`
output: 1.23 µM

input: What does the data say about its TGI? Entry: `C=C1C(=O)O[C@H]2[C@H]1CC/C(Cn1cc(CCC)nn1)=C\CC[C@@]1(C)O[C@@H]21`
output: 41.5 µM

input: What does the data say about its TGI? Entry: `Cc1c(Cl)cccc1NC(=O)C(=O)C1C(=O)NC(=O)NC1=O`
output: > 100 µM

input: What does the data say about its TGI? Entry: `CCN(CC)P1(=S)Oc2ccc3ccccc3c2-c2c(ccc3ccccc23)O1`
output: > 100 µM

input: What does the data say about its TGI? Entry: `Cc1nc2cc(O)c(O)cc2cc1Oc1ccc(NC(=O)Nc2ccc(Cl)c(Cl)c2)cc1`
output: 15.8 µM

input: What does the data say about its TGI? Entry: `OC(Cn1cncn1)(Cn1cncn1)c1ccc(Cl)cc1Cl`
output: > 100 µM

input: What does the data say about its TGI? Entry: CCOC1NC(=O)Oc2ccccc21 (stereo unspecified)
output: > 100 µM

input: What does the data say about its TGI? Entry: `COC(=O)/C(C#N)=C1\N=NNN1CCCc1ccccc1`
output: > 100 µM

input: What does the data say about its TGI? Entry: CCCCc1cc2c(cc1O)CCC1C2CC[C@@]2(C)C1CC[C@@H]2O (stereo partly specified)
output: 63.5 µM

input: What does the data say about its TGI? Entry: `CCCCOC(=O)N[C@H]1CCc2cc(OC)c(OC)c(OC)c2-c2ccc(SC)c(=O)cc21`
output: 0.115 µM

====

- System: RXF 393 renal
- protocol: NCI tumour cell line growth inhibition, 48 h
Would you mind telling me the reported TGI of each entry?

input: What does the data say about its TGI? Entry: `Cc1c2c(nn1-c1ccc(S/N=C3\SCC(=O)CN3c3ccccc3)cc1)-c1ccccc1CC2`
output: > 50 µM

input: What does the data say about its TGI? Entry: `Brc1ccc(-c2ccc(-c3ccc(Br)s3)s2)s1`
output: > 100 µM

input: What does the data say about its TGI? Entry: `COC(=O)/C(C#N)=C1\N=NNN1CCCc1ccccc1`
output: > 100 µM

Data origin, for the record: PubChem BioAssay (NCI)
